# key: entry, value: IC50
molecular target: HLA-DR DRB1*04:01 (Homo sapiens, UniProt P01903+P01911, A100K/A169T/F76Y/I96L/K127E/L162R/M171V/N62H/P40V/Q125Y/R42H/S133A/S149N/S66Y/V115G/V209L/W38E); assay: biochemical; format: binding; conditions: read-out: Binding capacity/IC50 (nM) DRB1*04:01

smi	IC50 / nM
CC[C@H](C)[C@H](NC(=O)[C@@H](NC(=O)[C@H](CCCCN)NC(=O)[C@@H](NC(=O)[C@@H]1CCCN1C(=O)[C@H](Cc1c[nH]c2ccccc12)NC(=O)[C@H](CCCNC(=N)N)NC(=O)CNC(=O)[C@H](C)NC(=O)[C@H](CC(C)C)NC(=O)[C@H](CCCCN)NC(=O)[C@H](CC(C)C)NC(=O)[C@@H](NC(=O)[C@H](Cc1ccccc1)NC(=O)[C@H](Cc1ccc(O)cc1)NC(=O)[C@H](C)NC(=O)[C@@H](NC(=O)[C@@H](N)CCC(=O)O)[C@@H](C)O)[C@@H](C)CC)C(C)C)C(C)C)C(N)=O	1770
CC[C@H](C)[C@H](NC(=O)CNC(=O)[C@H](CCCCN)NC(=O)[C@H](Cc1c[nH]cn1)NC(=O)[C@H](C)NC(=O)[C@@H]1CCCN1C(=O)[C@@H](NC(=O)[C@H](Cc1c[nH]c2ccccc12)NC(=O)[C@H](CO)NC(=O)[C@H](CC(C)C)NC(=O)[C@H](Cc1ccc(O)cc1)NC(=O)[C@@H](NC(=O)[C@H](CCCCN)NC(=O)[C@H](CCC(=O)O)NC(=O)[C@@H](N)CCCCN)C(C)C)C(C)C)C(=O)NCC(=O)NCC(=O)N[C@@H](CC(N)=O)C(=O)N[C@@H](CCC(=O)O)C(N)=O	68
CC[C@H](C)[C@H](NC(=O)[C@@H]1CCCN1C(=O)[C@H](CCC(=O)O)NC(=O)[C@@H](N)CCCCN)C(=O)N[C@H](C(=O)NCC(=O)N[C@@H](C)C(=O)N[C@@H](CCC(=O)O)C(=O)N[C@H](C(=O)N[C@@H](Cc1ccccc1)C(=O)N[C@@H](Cc1ccc(O)cc1)C(=O)N[C@H](C(=O)N[C@@H](CC(=O)O)C(=O)NCC(=O)N[C@@H](C)C(N)=O)C(C)C)[C@@H](C)O)C(C)C	23
